molecular target: human GRF receptor (Homo sapiens); construct: expressed in transfected cells; host or cells: baby hamster kidney (BHK) cells, stably transfected; experiment: Alkaline phosphatase (AP) assay, GHRHr agonist activity; assay type: cell-based; conditions: BHK cells stably expressing human GRF receptor and alkaline phosphatase reporter gene; 24 hrs stimulation; read-out: EC50 (nM) as assessed by alkaline phosphatase (AP) induction
Sequence (Q02643 23-423): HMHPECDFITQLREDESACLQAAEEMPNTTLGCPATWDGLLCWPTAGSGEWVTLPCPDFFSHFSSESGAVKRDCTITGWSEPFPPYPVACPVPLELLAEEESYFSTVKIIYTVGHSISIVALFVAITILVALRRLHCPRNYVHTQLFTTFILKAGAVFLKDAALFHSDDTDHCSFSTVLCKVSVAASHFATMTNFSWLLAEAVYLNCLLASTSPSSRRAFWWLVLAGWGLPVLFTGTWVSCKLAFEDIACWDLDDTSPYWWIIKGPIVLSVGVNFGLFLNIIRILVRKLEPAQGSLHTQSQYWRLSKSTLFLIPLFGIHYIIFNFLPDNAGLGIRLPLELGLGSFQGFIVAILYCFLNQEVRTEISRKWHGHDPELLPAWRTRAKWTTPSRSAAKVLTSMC
outcomeMeasure: EC50 (nM)

H-YGDAIFTDSYRKVLAQLKARQDILARAARAAR-NH2 [SEQ ID NO: 34] | 0.2
Ac-YADAIFTDSYRKVLAQLSARKLLQDILSR-NH2 [SEQ ID NO: 43, reference compound] | 0.25
H-YSDAIFTDSYRKVLAQLKARQDILARAARAAR-NH2 [SEQ ID NO: 33] | 0.25

###

test system: Growth Hormone secretion; assay: Growth Hormone secretion in female rats after subcutaneous GRF analog; format: in vivo; conditions: female Sprague-Dawley rats; 10 μg/rat subcutaneous; plasma 0-60 minutes
outcomeMeasure: Mean AUC (GH Area Under the curve, GH concentration over time)
Could you keep your reply to the number by itself?

Worked cases, answers included:
H-YSDAIFTDSYRKVLAQLKARQDILARAARAAR-NH2 [SEQ ID NO: 33] | 12467
H-YLDAIFTDSYRKVLAQLKARQDILARAARAAR-NH2 [SEQ ID NO: 35] | 9144
Ac-YADAIFTDSYRKVLAQLSARKLLQDILSR-NH2 [SEQ ID NO: 43, reference compound] | 2128

### Prompt Item H-YGDAIFTDSYRKVLAQLKARQDILARAARAAR-NH2 [SEQ ID NO: 34] : provide Mean AUC (GH Area Under the curve, GH concentration over time)
### Response 11046
